Values from the RNAGym collection of RNA variant scans (doi:10.7554/elife.80360)

B1: HDV Ribozyme (parent)
chain: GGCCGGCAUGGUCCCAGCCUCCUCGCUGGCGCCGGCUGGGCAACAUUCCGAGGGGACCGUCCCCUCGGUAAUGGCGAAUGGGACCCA

variants of: B1; assay: self-cleavage, relative activity (ratio to wild type); higher = more cleavage; co-transcriptional
Mark Condition not met for self-cleavage values under 0.7, and Condition met for everything at or above.

Solved cases below.
1. G54C C61A; Condition met
2. C62U G73C; Condition not met
3. G1U U23A; Condition not met
4. A42C C64A; Condition not met

Does self-cleavage meet or surpass 0.7 for A8C U23G ?
Condition not met

Does self-cleavage meet or surpass 0.7 for C84U ?
Condition met

Does self-cleavage meet or surpass 0.7 for C14U G35C ?
Condition not met

Does self-cleavage meet or surpass 0.7 for G10U A71C ?
Condition not met

Does self-cleavage meet or surpass 0.7 for C13U G38A ?
Condition not met

Does self-cleavage meet or surpass 0.7 for A16C C64U ?
Condition met

Does self-cleavage meet or surpass 0.7 for G81A C86G ?
Condition not met

Does self-cleavage meet or surpass 0.7 for A16C G28A ?
Condition not met

Does self-cleavage meet or surpass 0.7 for G50C C58A ?
Condition met

Does self-cleavage meet or surpass 0.7 for C41A A71U ?
Condition not met

Does self-cleavage meet or surpass 0.7 for C19U G50A ?
Condition not met

Does self-cleavage meet or surpass 0.7 for C18G C24A ?
Condition not met

Does self-cleavage meet or surpass 0.7 for G1A G31A ?
Condition not met

Does self-cleavage meet or surpass 0.7 for A56C U72C ?
Condition not met

Does self-cleavage meet or surpass 0.7 for C14A C57U ?
Condition met

Does self-cleavage meet or surpass 0.7 for G1A C84A ?
Condition not met

Does self-cleavage meet or surpass 0.7 for C13U U69A ?
Condition met
